Entries and their measured Activity follow.
# Test system: HT-29
# Protocol text: Antiproliferative activity against human HT-29 cells at 10 uM after 72 hrs by MTS assay
# Assay type: cell-based
# Reported conditions: ht-29, 72 h

Guide cases for Activity, answers given:
1) CCCCCOc1ccccc1-c1cc(C(=O)NC2CCC2)no1 :: 46%
2) CCCCCOc1ccccc1-c1cc(C(=O)NC2CCCCCC2)no1 :: 34%
3) CCCCCOc1ccccc1-c1cc(C(=O)NC2CCCCC2)no1 :: 37%

Q. Fill in Activity for record "CCCCCCOc1ccccc1-c1cc(C(=O)NC23CC4CC(CC(C4)C2)C3)no1"
A. 17%

Q. Fill in Activity for record "CCCCCOc1ccccc1-c1cc(C(=O)NC23CC4CC(CC2C4)C3)no1"
A. 20%

Q. Fill in Activity for record "CCCOc1ccccc1-c1cc(C(=O)NC23CC4CC(CC(C4)C2)C3)no1"
A. 8%

Q. Fill in Activity for record "CCCCCOc1ccccc1-c1cc(C(=O)NC2CCCCCCC2)no1"
A. 17%

Q. Fill in Activity for record "CCCCOc1ccccc1-c1cc(C(=O)NC23CC4CC(CC(C4)C2)C3)no1"
A. 2%

Q. Fill in Activity for record "CCCCCOc1ccccc1-c1cc(C(=O)NC2CCCC2)no1"
A. 13%

Q. Fill in Activity for record CCCCCOc1ccccc1-c1cc(C(=O)NC2C3CC4CC(C3)CC2C4)no1 (stereo unspecified)
A. 0%

Q. Fill in Activity for record "CCCCCOc1ccccc1-c1cc(C(=O)NC23CC4CC(CC(C4)C2)C3)no1"
A. 0%

* * *

Here's what we have: Ki numbers for Cannabinoid receptor 1 (Homo sapiens, UniProt P21554).

1) COc1ccccc1-c1cc(C(=O)NC23CC4CC(CC(C4)C2)C3)no1 :: > 3 µM
2) CCCCOc1ccccc1-c1cc(C(=O)NC23CC4CC(CC(C4)C2)C3)no1 :: > 3 µM

# next molecule below
Q. Fill in Ki for record "CCCCCOc1ccccc1-c1cc(C(=O)NC2CCCCCC2)no1"
A. > 3 µM

* * *

Entries and their measured log10 of Ki follow.
# System tested: Cannabinoid receptor 2 (Homo sapiens, UniProt P34972)
# Sequence (P34972 whole entry): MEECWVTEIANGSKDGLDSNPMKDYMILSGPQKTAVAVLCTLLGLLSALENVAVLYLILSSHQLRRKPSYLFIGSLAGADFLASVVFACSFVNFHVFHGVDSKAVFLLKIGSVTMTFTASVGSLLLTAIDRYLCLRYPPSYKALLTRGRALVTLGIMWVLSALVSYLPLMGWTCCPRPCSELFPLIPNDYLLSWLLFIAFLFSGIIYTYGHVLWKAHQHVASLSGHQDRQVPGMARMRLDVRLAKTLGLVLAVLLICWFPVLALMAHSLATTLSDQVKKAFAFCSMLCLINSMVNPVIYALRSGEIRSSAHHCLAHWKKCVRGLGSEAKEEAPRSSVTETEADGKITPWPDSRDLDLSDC
Lab note - Ki converted to log10 from values in nM.

1) CCCCCOc1ccccc1-c1cc(C(=O)NC2CCCCC2)no1 :: 1.36

Q. Fetch value of log10 of Ki on Cannabinoid receptor 2 (Homo sapiens, UniProt P34972) for CCCCCOc1ccccc1-c1cc(C(=O)NC2C3CC4CC(C3)CC2C4)no1 (configuration not stated) .
A. 1.78

Q. Fetch value of log10 of Ki on Cannabinoid receptor 2 (Homo sapiens, UniProt P34972) for "CCCCCOc1ccccc1-c1cc(C(=O)NC23CC4CC(CC2C4)C3)no1" .
A. 0.95

Q. Fetch value of log10 of Ki on Cannabinoid receptor 2 (Homo sapiens, UniProt P34972) for "CCCCCOc1ccccc1-c1cc(C(=O)NC2CCCC2)no1" .
A. 1.78

Q. Fetch value of log10 of Ki on Cannabinoid receptor 2 (Homo sapiens, UniProt P34972) for "CCCCCOc1ccccc1-c1cc(C(=O)NC2CCC2)no1" .
A. 2.61

Q. Fetch value of log10 of Ki on Cannabinoid receptor 2 (Homo sapiens, UniProt P34972) for "CCCCCOc1ccccc1-c1cc(C(=O)N(CC(C)C)CC(C)C)no1" .
A. 1.34

Q. Fetch value of log10 of Ki on Cannabinoid receptor 2 (Homo sapiens, UniProt P34972) for "CCCCOc1ccccc1-c1cc(C(=O)NC23CC4CC(CC(C4)C2)C3)no1" .
A. 2.57

Q. Fetch value of log10 of Ki on Cannabinoid receptor 2 (Homo sapiens, UniProt P34972) for "CCCCCCOc1ccccc1-c1cc(C(=O)NC23CC4CC(CC(C4)C2)C3)no1" .
A. 1.48

Origin of the recorded values: ChEMBL document CHEMBL2413003
